Items are presented alongside their recorded pKd.
Biological target: U1A (human, UniProt P09012 1-282)
Sequence (P09012 whole entry): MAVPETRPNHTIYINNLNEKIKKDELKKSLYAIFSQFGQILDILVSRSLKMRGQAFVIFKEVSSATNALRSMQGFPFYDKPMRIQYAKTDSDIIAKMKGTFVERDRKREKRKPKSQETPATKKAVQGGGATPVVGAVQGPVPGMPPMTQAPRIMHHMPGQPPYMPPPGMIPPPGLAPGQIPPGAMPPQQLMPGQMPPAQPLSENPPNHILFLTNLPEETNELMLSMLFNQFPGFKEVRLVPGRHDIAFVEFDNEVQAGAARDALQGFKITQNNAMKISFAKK
Experiment: fluorescence titration
pKd: −log10 of the molar value.

BINDER: GGGCCCGGUAUUGCAGUACCGCCGGGUCC (structured_RNA) [FAM-SLIV (U2 snRNA stemloop IV)]
pKd: 7.24
//
BINDER: GGGCCCGGCAUUGCACCUCGCCGGGUCC (structured_RNA) [FAM-SLII (U1 snRNA stemloop II)]
pKd: 9.48
